parameter: logP

{"mol_smiles": "COc1ccc(C(=O)N(C)N)cc1", "parameter": "logP", "measured": 1.23}
{"mol_smiles": "CN(NC(=S)Nc1ccccc1)C(=O)c1ccc([N+](=O)[O-])cc1", "parameter": "logP", "measured": 2.69}

I: CC=NN(C(=O)c1ccc(OC)cc1)c1ccccc1
II: Cc1ccc(C(=O)N(C)N)cc1
III: CN(N)C(=O)c1ccccc1
Prompt: Rank order required: logP, descending. Rank the items, then write their labels in that order.
Completion: I, II, III

A: Cc1ccc(C(=O)N(C)NC(=S)Nc2ccccc2)cc1
B: CN(N)C(=O)c1ccc([N+](=O)[O-])cc1
C: Cc1ccc(C(=O)N(NC(=S)Nc2ccccc2)c2ccccc2)cc1
Prompt: Rank order required: logP, descending. Rank the items, then write their labels in that order.
Completion: C, A, B

====

parameter: logP

Reference set (7 entries):
{"mol_smiles": "NN(C(=O)c1ccc([N+](=O)[O-])cc1)c1ccccc1", "logP": 2.62}
{"mol_smiles": "COc1ccc(C(=O)N(N)c2ccccc2)cc1", "logP": 2.94}
{"mol_smiles": "Cc1ccc(C(=O)N(N)c2ccccc2)cc1", "logP": 3.1}
{"mol_smiles": "COc1ccc(C(=O)N(C)NC(=S)Nc2ccccc2)cc1", "logP": 2.8}
{"mol_smiles": "C/C=N/N(C(=O)c1ccc([N+](=O)[O-])cc1)c1ccccc1", "logP": 3.14}
{"mol_smiles": "C/C=N/N(C(=O)c1ccc(C)cc1)c1ccccc1", "logP": 3.39}
{"mol_smiles": "CC=NN(C(=O)c1ccccc1)c1ccccc1", "logP": 2.88}

A: NN(C(=O)c1ccccc1)c1ccccc1
B: O=C(c1ccc([N+](=O)[O-])cc1)N(NC(=S)Nc1ccccc1)c1ccccc1
Prompt: Of A and B , whose reported logP is the larger number? Please respond with the label that marks your chosen entry.
Completion: B
(B: 3.91, A: 2.44)
